assay: in vitro; format: cell-based; conditions: African green monkey
Peptide text beside a SMILES is read from it.
# GI50 at 48 h annotations

CC[C@H](C)[C@@H]1NC(=O)[C@H](CCCNC(=N)N)NC(=O)[C@H](Cc2c[nH]c3ccccc23)NC(=O)[C@@H]2CCCN2C(=O)[C@H]2CCCN2C(=O)[C@H](C)NC(=O)[C@H](CCCNC(=N)N)NC(=O)[C@H](CC(N)=O)NC(=O)[C@H](CCCNC(=N)N)NC(=O)[C@H](CCCCN)NC(=O)[C@H](CC(N)=O)NC(=O)[C@@H](CCCNC(=N)N)NC(=O)[C@H]([C@@H](C)CC)NC(=O)[C@H](CCCNC(=N)N)NC1=O [Example 3] (HELM PEPTIDE1{W.R.I.R.I.[dR].N.K.R.N.R.A.[dP].P}$PEPTIDE1,PEPTIDE1,1:R1-14:R2$$$V2.0): > 50 mg/L

API: the following record is the query input.
Q) Which GI50 at 48 h value belongs to CC[C@H](C)[C@@H]1NC(=O)[C@H](CCCNC(=N)N)NC(=O)[C@H](Cc2c[nH]c3ccccc23)NC(=O)[C@@H]2CCCN2C(=O)[C@H]2CCCN2C(=O)[C@H](C)NC(=O)[C@H](CCC(N)=O)NC(=O)[C@H](CC(C)C)NC(=O)[C@H](CCCNC(=N)N)NC(=O)[C@H](CCC(N)=O)NC(=O)[C@H](CC(N)=O)NC(=O)[C@@H](CCCNC(=N)N)NC(=O)[C@H]([C@@H](C)CC)NC(=O)[C@H](CCCN)NC1=O [Example 8] (HELM PEPTIDE1{W.R.I.[Orn].I.[dR].N.Q.R.L.Q.A.[dP].P}$PEPTIDE1,PEPTIDE1,1:R1-14:R2$$$V2.0) ?
A) > 50 mg/L

---

tested on: human red blood cells (hRBC); assay type: cell-based; conditions: red cells of human, 1 h
Peptide text beside a SMILES is read from it.
valueType: Hemolysis at 100 μg/mL (%)
Numbers only; they are read as %.

CC[C@H](C)[C@@H]1NC(=O)[C@H](CCCNC(=N)N)NC(=O)[C@H](Cc2c[nH]c3ccccc23)NC(=O)[C@@H]2CCCN2C(=O)[C@H]2CCCN2C(=O)[C@H](C)NC(=O)[C@H](CCC(N)=O)NC(=O)[C@H](CC(C)C)NC(=O)[C@H](CCCNC(=N)N)NC(=O)[C@H](CCC(N)=O)NC(=O)[C@H]([C@@H](C)O)NC(=O)[C@@H](CCCNC(=N)N)NC(=O)[C@H]([C@@H](C)CC)NC(=O)[C@H](CCCNC(=N)N)NC1=O [Example 12] (HELM PEPTIDE1{W.R.I.R.I.[dR].T.Q.R.L.Q.A.[dP].P}$PEPTIDE1,PEPTIDE1,1:R1-14:R2$$$V2.0): 0.7
CC[C@H](C)[C@@H]1NC(=O)[C@H](CCCNC(=N)N)NC(=O)[C@H](Cc2c[nH]c3ccccc23)NC(=O)[C@@H]2CCCN2C(=O)[C@H]2CCCN2C(=O)[C@H](C)NC(=O)[C@H](CCC(N)=O)NC(=O)[C@H](CC(C)C)NC(=O)[C@H](CCCNC(=N)N)NC(=O)[C@H](CCC(N)=O)NC(=O)[C@H](CC(C)C)NC(=O)[C@@H](CCCNC(=N)N)NC(=O)[C@H]([C@@H](C)CC)NC(=O)[C@H](CCCNC(=N)N)NC1=O [Example 13] (HELM PEPTIDE1{W.R.I.R.I.[dR].L.Q.R.L.Q.A.[dP].P}$PEPTIDE1,PEPTIDE1,1:R1-14:R2$$$V2.0): 0.0
CC[C@H](C)[C@@H]1NC(=O)[C@H](CCCNC(=N)N)NC(=O)[C@H](Cc2c[nH]c3ccccc23)NC(=O)[C@@H]2CCCN2C(=O)[C@H]2CCCN2C(=O)[C@H](C)NC(=O)[C@H](CCC(N)=O)NC(=O)[C@H](CC(C)C)NC(=O)[C@H](CCCNC(=N)N)NC(=O)[C@H](CCC(N)=O)NC(=O)[C@H](CC(N)=O)NC(=O)[C@@H](CCCNC(=N)N)NC(=O)[C@H]([C@@H](C)CC)NC(=O)[C@H](CCCN)NC1=O [Example 8] (HELM PEPTIDE1{W.R.I.[Orn].I.[dR].N.Q.R.L.Q.A.[dP].P}$PEPTIDE1,PEPTIDE1,1:R1-14:R2$$$V2.0): 0.0
CC[C@H](C)[C@@H]1NC(=O)[C@H](CCCNC(=N)N)NC(=O)[C@H](Cc2c[nH]c3ccccc23)NC(=O)[C@@H]2CCCN2C(=O)[C@H]2CCCN2C(=O)[C@H](C)NC(=O)[C@H](CCCNC(=N)N)NC(=O)[C@H](CC(N)=O)NC(=O)[C@H](CCCNC(=N)N)NC(=O)[C@H](CCCCN)NC(=O)[C@H](CC(N)=O)NC(=O)[C@@H](CCCNC(=N)N)NC(=O)[C@H]([C@@H](C)CC)NC(=O)[C@H](CCCNC(=N)N)NC1=O [Example 3] (HELM PEPTIDE1{W.R.I.R.I.[dR].N.K.R.N.R.A.[dP].P}$PEPTIDE1,PEPTIDE1,1:R1-14:R2$$$V2.0): 0.1

API: the following record is the query input.
Q) Which Hemolysis at 100 μg/mL value belongs to CC[C@H](C)[C@@H]1NC(=O)[C@H](CCCNC(=N)N)NC(=O)[C@H](Cc2c[nH]c3ccccc23)NC(=O)[C@@H]2CCCN2C(=O)[C@H]2CCCN2C(=O)[C@H](C)NC(=O)[C@H](CCC(N)=O)NC(=O)[C@H](CC(C)C)NC(=O)[C@H](CCCNC(=N)N)NC(=O)[C@H](CCC(N)=O)NC(=O)[C@H](CCC(N)=O)NC(=O)[C@@H](CCCNC(=N)N)NC(=O)[C@H]([C@@H](C)CC)NC(=O)[C@H](CCCNC(=N)N)NC1=O [Example 11] (HELM PEPTIDE1{W.R.I.R.I.[dR].Q.Q.R.L.Q.A.[dP].P}$PEPTIDE1,PEPTIDE1,1:R1-14:R2$$$V2.0) ?
A) 0.0
